Listed here are compounds together with their documented Ratio Ki.
assayOverview: Selectivity ratio of Ki for bovine eNOS to Ki for rat nNOS

{"molecularString": "COc1ccccc1CNCCO[C@@H]1CNC[C@@H]1Cc1cc(C)cc(N)n1", "Ratio Ki": 93}
{"molecularString": "Cc1cc(N)nc(C[C@H]2CNC[C@H]2OCCNCc2ccco2)c1", "Ratio Ki": 169}
{"molecularString": "Cc1cc(N)nc(C[C@H]2CNC[C@H]2OCCNCc2ccccc2F)c1", "Ratio Ki": 98}
{"molecularString": "Cc1cc(N)nc(C[C@H]2CNC[C@H]2OCCNCc2ccccc2O)c1", "Ratio Ki": 93}

====

Listed here are compounds together with their documented IC50.
assayedSystem: Nitric oxide synthase 1 (Rattus norvegicus, UniProt P29476)
Sequence (P29476 whole entry): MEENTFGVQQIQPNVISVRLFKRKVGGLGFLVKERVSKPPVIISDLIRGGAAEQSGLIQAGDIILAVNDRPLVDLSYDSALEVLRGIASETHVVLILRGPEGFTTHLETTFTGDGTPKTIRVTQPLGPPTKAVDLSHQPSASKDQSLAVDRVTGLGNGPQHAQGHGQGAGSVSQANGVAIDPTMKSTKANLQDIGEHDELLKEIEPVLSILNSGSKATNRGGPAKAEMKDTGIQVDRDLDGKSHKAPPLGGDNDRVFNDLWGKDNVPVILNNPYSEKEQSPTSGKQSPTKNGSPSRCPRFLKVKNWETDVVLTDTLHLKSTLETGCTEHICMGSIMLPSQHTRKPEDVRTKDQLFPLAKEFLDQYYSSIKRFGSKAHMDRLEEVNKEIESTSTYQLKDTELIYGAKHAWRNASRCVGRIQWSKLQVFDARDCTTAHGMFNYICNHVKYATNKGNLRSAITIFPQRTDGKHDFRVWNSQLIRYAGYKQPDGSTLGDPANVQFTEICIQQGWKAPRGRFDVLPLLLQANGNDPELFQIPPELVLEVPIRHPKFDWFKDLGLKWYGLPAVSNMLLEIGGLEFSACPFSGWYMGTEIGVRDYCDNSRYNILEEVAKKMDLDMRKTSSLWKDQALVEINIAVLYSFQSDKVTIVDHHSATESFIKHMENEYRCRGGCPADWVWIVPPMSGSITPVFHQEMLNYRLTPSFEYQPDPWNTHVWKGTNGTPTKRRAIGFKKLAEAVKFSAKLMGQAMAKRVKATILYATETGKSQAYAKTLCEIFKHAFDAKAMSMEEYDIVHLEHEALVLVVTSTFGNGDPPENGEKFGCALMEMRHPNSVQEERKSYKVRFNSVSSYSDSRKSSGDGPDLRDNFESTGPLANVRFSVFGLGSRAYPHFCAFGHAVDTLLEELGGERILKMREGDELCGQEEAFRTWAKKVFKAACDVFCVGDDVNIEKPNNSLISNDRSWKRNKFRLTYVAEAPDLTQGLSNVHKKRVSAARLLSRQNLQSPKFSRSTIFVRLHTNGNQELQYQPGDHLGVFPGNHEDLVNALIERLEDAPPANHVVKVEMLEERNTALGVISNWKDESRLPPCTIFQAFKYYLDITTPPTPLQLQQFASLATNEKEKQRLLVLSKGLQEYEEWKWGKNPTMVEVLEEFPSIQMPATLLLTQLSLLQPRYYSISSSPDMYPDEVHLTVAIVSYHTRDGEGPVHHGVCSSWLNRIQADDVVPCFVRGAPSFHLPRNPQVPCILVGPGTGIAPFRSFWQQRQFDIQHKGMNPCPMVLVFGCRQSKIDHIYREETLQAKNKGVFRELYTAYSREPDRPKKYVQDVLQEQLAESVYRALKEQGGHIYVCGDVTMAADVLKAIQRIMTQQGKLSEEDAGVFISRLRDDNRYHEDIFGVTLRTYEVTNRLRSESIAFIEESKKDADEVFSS
assayOverview: Inhibition of rat nNOS expressed in HEK293T cells preincubated for 30 mins prior A23187-induced activation measured after 6 hrs by Griess assay
Format: cell-based, HEK-293T

{"molecularString": "COc1ccccc1CNCCO[C@@H]1CNC[C@@H]1Cc1cc(C)cc(N)n1", "IC50 / µM": 22}
{"molecularString": "Cc1cc(C)nc(N)c1", "IC50 / µM": 25}
{"molecularString": "Cc1cc(N)nc(C[C@H]2CNC[C@H]2OCCNCc2ccco2)c1", "IC50 / µM": 100}
{"molecularString": "Cc1cc(N)nc(C[C@H]2CNC[C@H]2OCCNCc2ccccc2F)c1", "IC50 / µM": 11}
{"molecularString": "Cc1cc(N)nc(C[C@H]2CNC[C@H]2OCCNCc2ccccc2O)c1", "IC50 / µM": 43}

====

assayOverview: Selectivity ratio of Ki for mouse iNOS to Ki for rat nNOS
Listed here are molecules together with their documented Ratio Ki.

{"molecularString": "Cc1cc(N)nc(C[C@H]2CNC[C@H]2OCCNCc2ccccc2O)c1", "Ratio Ki": 143}
{"molecularString": "Cc1cc(N)nc(C[C@H]2CNC[C@H]2OCCNCc2ccco2)c1", "Ratio Ki": 92}
{"molecularString": "Cc1cc(N)nc(C[C@H]2CNC[C@H]2OCCNCc2ccccc2F)c1", "Ratio Ki": 105}
{"molecularString": "COc1ccccc1CNCCO[C@@H]1CNC[C@@H]1Cc1cc(C)cc(N)n1", "Ratio Ki": 139}
